# experiment summary: Induction of penile erection
# condition set: male rats, 3.0 mg/kg s.c.; rats showing at least one erection
% Responders: recorded values
attribute measured: % Responders (%)

compound	attribute measured	observed
CC(=O)N[C@@H](CCCNC(=N)N)C(=O)N[C@H]1CCC(=O)NCCC[C@@H](C(N)=O)NC(=O)[C@H](Cc2c[nH]c3ccccc23)NC(=O)[C@H](CCCNC(=N)N)NC(=O)[C@@H](Cc2ccc(C#N)cc2)NC(=O)[C@H](CC(N)=O)NC1=O [Example 43]	% Responders	100
CC(=O)N[C@@H](CCCNC(=N)N)C(=O)N[C@H]1CCC(=O)NCCC[C@@H](C(N)=O)NC(=O)[C@H](Cc2c[nH]c3ccccc23)NC(=O)[C@H](CCCNC(=N)N)NC(=O)[C@@H](Cc2ccc(C#N)cc2)NC(=O)[C@H](CCC(N)=O)NC1=O [Example 46]	% Responders	86
CC(=O)N[C@@H](CCCNC(=N)N)C(=O)N[C@H]1CCC(=O)NCCC[C@@H](C(N)=O)NC(=O)[C@H](Cc2c[nH]c3ccccc23)NC(=O)[C@H](CCCNC(=N)N)NC(=O)[C@@H](Cc2ccc(F)cc2)NC(=O)[C@@H]2CCCN2C1=O [Example 67]	% Responders	100
CC(=O)N[C@@H](CCCNC(=N)N)C(=O)N[C@H]1CCC(=O)NCCC[C@@H](C(=O)O)NC(=O)[C@H](Cc2c[nH]c3ccccc23)NC(=O)[C@H](CCCNC(=N)N)NC(=O)[C@@H](Cc2ccccc2)NC(=O)[C@H](CCN)NC1=O [Ref Ex 2, reference compound]	% Responders	100
